# test: Tmax in cage fluid of Albino guiena pig at 12.5 mg/kg, ip
# Type: ADME, organism-based, Cavia porcellus
# Set-up: dose 12.5 mg/kg, route intraperitoneal
# run.conditions: guinea pig
readout.kind: Tmax (h)
Give bare numbers, in h.

Would you mind telling me what Tmax value was observed for `CO[C@H]1/C=C/O[C@@]2(C)Oc3c(C)c(O)c4c(O)c(c(/C=N/N5CCN(C)CC5)c(O)c4c3C2=O)NC(=O)/C(C)=C\C=C\[C@H](C)[C@H](O)[C@@H](C)[C@@H](O)[C@@H](C)[C@H](OC(C)=O)[C@@H]1C` ? 2.1

----------
# test: Cmin in cage fluid of Albino guiena pig at 75 mg/kg, ip after 12 hrs
# Assay type: ADME, organism-based, Cavia porcellus
# Design: dose 75 mg/kg, route intraperitoneal
# run.conditions: guinea pig, read-out: Cmin
readout.kind: concentration at 12 h

Return reported concentration at 12 h; argument: CC(=O)NC[C@H]1CN(c2ccc(N3CCOCC3)c(F)c2)C(=O)O1 [LINEZOLID] 2500 ng/mL

----------
# test: Half life in cage fluid of Albino guiena pig at 75 mg/kg, ip
# run.conditions: guinea pig
readout.kind: half-life (h)
Answers are plain numbers, in h.

Find the recorded half-life belonging to CC(=O)NC[C@H]1CN(c2ccc(N3CCOCC3)c(F)c2)C(=O)O1 [LINEZOLID] and report it. 2.6

----------
# test: Tmax in cage fluid of Albino guiena pig at 25 mg/kg, ip
# Format: ADME, organism-based, Cavia porcellus
# Parameters: dose 25 mg/kg, route intraperitoneal
# run.conditions: guinea pig
readout.kind: Tmax (h)
Give bare numbers, in h.

Report Tmax for CC(=O)NC[C@H]1CN(c2ccc(N3CCOCC3)c(F)c2)C(=O)O1 [LINEZOLID] please. 3

----------
# test: AUC (0 to 24 hrs) in cage fluid of Albino guiena pig at 10 mg/kg, ip
# Assay type: ADME, organism-based, Cavia porcellus
# Parameters: time < 24 hr, dose 10 mg/kg, route intraperitoneal
# run.conditions: guinea pig
readout.kind: AUC(0-t) at 24 h (ng·h/mL)
Answers are plain numbers, in ng·h/mL.

AUC(0-t) at 24 h for `C[C@H]1COc2c(N3CCN(C)CC3)c(F)cc3c(=O)c(C(=O)O)cn1c23.C[C@H]1COc2c(N3CCN(C)CC3)c(F)cc3c(=O)c(C(=O)O)cn1c23.O` ? 6100

----------
# test: AUC (0 to 24 hrs) in cage fluid of Albino guiena pig at 75 mg/kg, ip
# Assay type: ADME, organism-based, Cavia porcellus
# Set-up: time < 24 hr, dose 75 mg/kg, route intraperitoneal
# run.conditions: guinea pig
readout.kind: AUC(0-t) at 24 h

Which AUC(0-t) at 24 h value is on record for `CC(=O)NC[C@H]1CN(c2ccc(N3CCOCC3)c(F)c2)C(=O)O1` ? 126 µg·h/mL

----------
# test: Half life in cage fluid of Albino guiena pig at 25 mg/kg, ip
# run.conditions: guinea pig
readout.kind: half-life

Any idea what half-life was measured for `CC(=O)NC[C@H]1CN(c2ccc(N3CCOCC3)c(F)c2)C(=O)O1` ? 6.8 h

----------
# test: AUC (0 to 24 hrs) in cage fluid of Albino guiena pig at 12.5 mg/kg, ip
# Format: ADME, organism-based, Cavia porcellus
# Design: time < 24 hr, dose 12.5 mg/kg, route intraperitoneal
# run.conditions: guinea pig
readout.kind: AUC(0-t) at 24 h (ng·h/mL)
Answers are plain numbers, in ng·h/mL.

State the recorded AUC(0-t) at 24 h for this entry: `CO[C@H]1/C=C/O[C@@]2(C)Oc3c(C)c(O)c4c(O)c(c(/C=N/N5CCN(C)CC5)c(O)c4c3C2=O)NC(=O)/C(C)=C\C=C\[C@H](C)[C@H](O)[C@@H](C)[C@@H](O)[C@@H](C)[C@H](OC(C)=O)[C@@H]1C` 4600
